Target: T1, cardiotoxin 4 (CTX4) (Naja atra (Taiwan cobra), UniProt P01443 22-81)
T1 sequence: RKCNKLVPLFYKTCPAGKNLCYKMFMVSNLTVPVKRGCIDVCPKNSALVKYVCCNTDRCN
Assay: fluorescence quenching titration; 10 mM Tris-HCl pH 7.5, 1 mM EDTA, 100 mM NaCl; temperature not stated; fluorescence with 4 nM aptamer (ex 480/em 520 nm); EMSA with 5 uM aptamer, 20 min, 2% agarose, TAE
Conditions: protein: native; tags: none; label: 5'-FAM
Observed Property: Kd (µM)
Value expressed in µM; do not type the unit.

Query string: Quickly give me recorded Kd for GCGAGGTGTTCGAGAGTTAGGGCGACATGACCAAACGTT (ssDNA) [FAM-bgt1]
Result string: 8.13
